# methodDescription: Cmax in ICR mouse at 10 mg/kg, ip measured upto 24 hrs by LC-MS/MS analysis
# Assay type: ADME, organism-based
# conditionDescription: in vivo
readout: Cmax (ng/mL)

{"columns": ["chemicalString", "readout", "unitText", "quantitativeReadout"],
 "data": [
  ["CC(=O)Nc1ccc2c(c1)[C@]13CCCC[C@@H]1[C@H](C2)N(C)CC3", "Cmax", "ng/mL", 1680],
  ["CN1CC[C@@]23CCCC[C@@H]2[C@@H]1Cc1ccc(N)cc13", "Cmax", "ng/mL", 1360],
  ["COc1ccc2c(c1)[C@]13CCCC[C@@H]1[C@H](C2)N(C)CC3", "Cmax", "ng/mL", 720]
]}

====

List of half-life values.
# methodDescription: Metabolic stability in mouse liver microsome assessed as half life in presence of NADPH measured upto 60 mins by LC-MS/MS analysis
# Assay type: ADME
# conditionDescription: liver microsomes

{"columns": ["molecule", "half-life"],
 "data": [
  ["COc1ccc2c(c1)[C@]13CCCC[C@@H]1[C@H](C2)N(C)CC3 [DEXTROMETHORPHAN]", "26 min"],
  ["CN1CC[C@@]23CCCC[C@@H]2[C@@H]1Cc1ccc(N)cc13", "137 min"],
  ["CC(=O)Nc1ccc2c(c1)[C@]13CCCC[C@@H]1[C@H](C2)N(C)CC3", "267 min"]
]}

====

# targetOrTestSystem: Sodium-dependent noradrenaline transporter (Homo sapiens, UniProt P23975)
# Sequence (P23975 whole entry): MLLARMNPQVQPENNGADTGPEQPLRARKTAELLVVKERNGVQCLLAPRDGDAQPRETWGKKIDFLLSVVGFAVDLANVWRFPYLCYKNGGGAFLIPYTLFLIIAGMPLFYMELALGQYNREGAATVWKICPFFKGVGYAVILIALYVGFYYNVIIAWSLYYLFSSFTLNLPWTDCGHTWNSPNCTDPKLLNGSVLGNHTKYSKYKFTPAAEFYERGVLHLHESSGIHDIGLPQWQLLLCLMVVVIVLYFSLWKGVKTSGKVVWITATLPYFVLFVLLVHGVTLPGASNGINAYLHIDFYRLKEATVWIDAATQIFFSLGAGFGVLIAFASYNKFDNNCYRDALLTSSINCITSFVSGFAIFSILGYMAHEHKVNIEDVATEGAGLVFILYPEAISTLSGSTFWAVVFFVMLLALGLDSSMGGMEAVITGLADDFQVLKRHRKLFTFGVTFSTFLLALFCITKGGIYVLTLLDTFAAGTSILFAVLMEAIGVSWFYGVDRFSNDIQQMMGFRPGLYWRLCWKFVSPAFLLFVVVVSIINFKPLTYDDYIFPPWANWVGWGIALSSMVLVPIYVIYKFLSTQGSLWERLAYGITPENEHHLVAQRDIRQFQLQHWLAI
# methodDescription: Inhibition of NET (unknown origin) at 10 uM relative to control
The source made the active and inactive calls. The rule behind the calls is not given here.

{"columns": ["compound", "targetOrTestSystem", "inhibition"],
 "data": [
  ["CCc1ccc2c(c1)[C@]13CCCC[C@@H]1[C@H](C2)N(CC)CC3", "Sodium-dependent noradrenaline transporter (Homo sapiens, UniProt P23975)", "24%"],
  ["CNc1ccc2c(c1)[C@]13CCCC[C@@H]1[C@H](C2)N(C)CC3", "Sodium-dependent noradrenaline transporter (Homo sapiens, UniProt P23975)", "25%"],
  ["CN1CC[C@@]23CCCC[C@@H]2[C@@H]1Cc1ccc(C(N)=O)cc13", "Sodium-dependent noradrenaline transporter (Homo sapiens, UniProt P23975)", "12%"],
  ["COC(=O)c1ccc2c(c1)[C@]13CCCC[C@@H]1[C@H](C2)N(C)CC3", "Sodium-dependent noradrenaline transporter (Homo sapiens, UniProt P23975)", "12%"],
  ["CN1CC[C@@]23CCCC[C@@H]2[C@@H]1Cc1ccc(NC=O)cc13", "Sodium-dependent noradrenaline transporter (Homo sapiens, UniProt P23975)", "inactive"],
  ["CN1CC[C@@]23CCCC[C@@H]2[C@@H]1Cc1ccc(NC(=O)c2ccccc2)cc13", "Sodium-dependent noradrenaline transporter (Homo sapiens, UniProt P23975)", "inactive"],
  ["CN1CC[C@@]23CCCC[C@@H]2[C@@H]1Cc1ccc(N)cc13", "Sodium-dependent noradrenaline transporter (Homo sapiens, UniProt P23975)", "4%"],
  ["CCOc1ccc2c(c1)[C@]13CCCC[C@@H]1[C@H](C2)N(C)CC3", "Sodium-dependent noradrenaline transporter (Homo sapiens, UniProt P23975)", "33%"],
  ["CCOc1ccc2c(c1)[C@]13CCCC[C@@H]1[C@H](C2)N(CC)CC3", "Sodium-dependent noradrenaline transporter (Homo sapiens, UniProt P23975)", "26%"],
  ["CCN1CC[C@@]23CCCC[C@@H]2[C@@H]1Cc1ccccc13", "Sodium-dependent noradrenaline transporter (Homo sapiens, UniProt P23975)", "23%"],
  ["CN1CC[C@@]23CCCC[C@@H]2[C@@H]1Cc1ccc(C(=O)NC2CC2)cc13", "Sodium-dependent noradrenaline transporter (Homo sapiens, UniProt P23975)", "inactive"],
  ["CC(=O)c1ccc2c(c1)[C@]13CCCC[C@@H]1[C@H](C2)N(C)CC3", "Sodium-dependent noradrenaline transporter (Homo sapiens, UniProt P23975)", "inactive"],
  ["CCOc1ccc2c(c1)[C@]13CCCC[C@@H]1[C@H](C2)NCC3", "Sodium-dependent noradrenaline transporter (Homo sapiens, UniProt P23975)", "12%"],
  ["CC(O)c1ccc2c(c1)[C@]13CCCC[C@@H]1[C@H](C2)N(C)CC3 (some centres undefined)", "Sodium-dependent noradrenaline transporter (Homo sapiens, UniProt P23975)", "39%"]
]}

====

# targetOrTestSystem: Mu-type opioid receptor (Homo sapiens, UniProt P35372)
# Sequence (P35372 whole entry): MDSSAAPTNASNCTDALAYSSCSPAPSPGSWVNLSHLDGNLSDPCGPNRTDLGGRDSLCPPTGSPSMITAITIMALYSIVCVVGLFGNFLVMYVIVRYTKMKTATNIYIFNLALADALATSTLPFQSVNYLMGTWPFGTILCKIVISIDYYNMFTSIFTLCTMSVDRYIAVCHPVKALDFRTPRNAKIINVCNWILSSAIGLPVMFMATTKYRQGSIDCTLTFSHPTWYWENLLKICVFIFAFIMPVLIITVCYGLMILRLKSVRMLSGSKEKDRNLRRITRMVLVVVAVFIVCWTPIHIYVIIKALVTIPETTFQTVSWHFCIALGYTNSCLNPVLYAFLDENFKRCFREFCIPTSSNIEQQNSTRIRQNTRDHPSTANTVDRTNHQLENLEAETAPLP
# methodDescription: Agonist activity at human mu-opioid receptor stably expressed in CHO cells assessed as inhibition of forskolin-induced cAMP accumulation at 30 uM preincubated with compound for 10 mins followed by forskolin induction and measured after 30 mins by LANCE Ultra cAMP assay relative to control
# Format: functional, cell-based
# conditionDescription: time 40.0 min
List of inhibition values.

{"columns": ["molecule", "inhibition [%]"],
 "data": [
  ["COc1ccc2c(c1)[C@]13CCCC[C@@H]1[C@H](C2)N(C)CC3 [DEXTROMETHORPHAN]", 5],
  ["CN1CC[C@@]23CCCC[C@@H]2[C@@H]1Cc1ccc(N)cc13", 11],
  ["CCc1ccc2c(c1)[C@]13CCCC[C@@H]1[C@H](C2)NCC3", 33],
  ["CN1CC[C@@]23CCCC[C@@H]2[C@@H]1Cc1ccc(NC=O)cc13", 33],
  ["CN1CC[C@@]23CCCC[C@@H]2[C@@H]1Cc1ccc(C(C)(C)O)cc13", 11]
]}

====

# methodDescription: Tmax in ICR mouse at 10 mg/kg, ip measured upto 24 hrs by LC-MS/MS analysis
# Format: ADME, organism-based
# conditionDescription: in vivo
List of Tmax values.

{"columns": ["molecule", "Tmax [min]"],
 "data": [
  ["CN1CC[C@@]23CCCC[C@@H]2[C@@H]1Cc1ccc(N)cc13", 4.8],
  ["CC(=O)Nc1ccc2c(c1)[C@]13CCCC[C@@H]1[C@H](C2)N(C)CC3", 4.8],
  ["COc1ccc2c(c1)[C@]13CCCC[C@@H]1[C@H](C2)N(C)CC3 [DEXTROMETHORPHAN]", 8.4]
]}

====

List of inhibition values.
# targetOrTestSystem: UniProtKB P35372
# methodDescription: Agonist activity at human mu-opioid receptor stably expressed in CHO cells assessed as inhibition of forskolin-induced cAMP accumulation at 30 uM preincubated with compound for 10 mins followed by forskolin induction and measured after 30 mins by LANCE Ultra cAMP assay relative to control
# Type: functional, cell-based
# conditionDescription: time 40.0 min
readout: inhibition (%)

{"columns": ["chemicalString", "readout", "quantitativeReadout"],
 "data": [
  ["CC(=O)Nc1ccc2c(c1)[C@]13CCCC[C@@H]1[C@H](C2)N(C)CC3", "inhibition", 36],
  ["CCOc1ccc2c(c1)[C@]13CCCC[C@@H]1[C@H](C2)NCC3", "inhibition", 24],
  ["CNC(=O)c1ccc2c(c1)[C@]13CCCC[C@@H]1[C@H](C2)N(C)CC3", "inhibition", 25],
  ["CCOc1ccc2c(c1)[C@]13CCCC[C@@H]1[C@H](C2)N(C)CC3", "inhibition", 26],
  ["CN1CC[C@@]23CCCC[C@@H]2[C@@H]1Cc1ccc(NC(=O)c2ccccc2)cc13", "inhibition", 14],
  ["CNc1ccc2c(c1)[C@]13CCCC[C@@H]1[C@H](C2)N(C)CC3", "inhibition", 14],
  ["CCc1ccc2c(c1)[C@]13CCCC[C@@H]1[C@H](C2)N(CC)CC3", "inhibition", 10],
  ["CCc1ccc2c(c1)[C@]13CCCC[C@@H]1[C@H](C2)N(C)CC3", "inhibition", 23],
  ["Cc1ccc2c(c1)[C@]13CCCC[C@@H]1[C@H](C2)N(C)CC3", "inhibition", 21],
  ["CN1CC[C@@]23CCCC[C@@H]2[C@@H]1Cc1ccccc13", "inhibition", 39]
]}

====

# targetOrTestSystem: Voltage-gated inwardly rectifying potassium channel KCNH2 (Homo sapiens, UniProt Q12809)
# Sequence (Q12809 whole entry): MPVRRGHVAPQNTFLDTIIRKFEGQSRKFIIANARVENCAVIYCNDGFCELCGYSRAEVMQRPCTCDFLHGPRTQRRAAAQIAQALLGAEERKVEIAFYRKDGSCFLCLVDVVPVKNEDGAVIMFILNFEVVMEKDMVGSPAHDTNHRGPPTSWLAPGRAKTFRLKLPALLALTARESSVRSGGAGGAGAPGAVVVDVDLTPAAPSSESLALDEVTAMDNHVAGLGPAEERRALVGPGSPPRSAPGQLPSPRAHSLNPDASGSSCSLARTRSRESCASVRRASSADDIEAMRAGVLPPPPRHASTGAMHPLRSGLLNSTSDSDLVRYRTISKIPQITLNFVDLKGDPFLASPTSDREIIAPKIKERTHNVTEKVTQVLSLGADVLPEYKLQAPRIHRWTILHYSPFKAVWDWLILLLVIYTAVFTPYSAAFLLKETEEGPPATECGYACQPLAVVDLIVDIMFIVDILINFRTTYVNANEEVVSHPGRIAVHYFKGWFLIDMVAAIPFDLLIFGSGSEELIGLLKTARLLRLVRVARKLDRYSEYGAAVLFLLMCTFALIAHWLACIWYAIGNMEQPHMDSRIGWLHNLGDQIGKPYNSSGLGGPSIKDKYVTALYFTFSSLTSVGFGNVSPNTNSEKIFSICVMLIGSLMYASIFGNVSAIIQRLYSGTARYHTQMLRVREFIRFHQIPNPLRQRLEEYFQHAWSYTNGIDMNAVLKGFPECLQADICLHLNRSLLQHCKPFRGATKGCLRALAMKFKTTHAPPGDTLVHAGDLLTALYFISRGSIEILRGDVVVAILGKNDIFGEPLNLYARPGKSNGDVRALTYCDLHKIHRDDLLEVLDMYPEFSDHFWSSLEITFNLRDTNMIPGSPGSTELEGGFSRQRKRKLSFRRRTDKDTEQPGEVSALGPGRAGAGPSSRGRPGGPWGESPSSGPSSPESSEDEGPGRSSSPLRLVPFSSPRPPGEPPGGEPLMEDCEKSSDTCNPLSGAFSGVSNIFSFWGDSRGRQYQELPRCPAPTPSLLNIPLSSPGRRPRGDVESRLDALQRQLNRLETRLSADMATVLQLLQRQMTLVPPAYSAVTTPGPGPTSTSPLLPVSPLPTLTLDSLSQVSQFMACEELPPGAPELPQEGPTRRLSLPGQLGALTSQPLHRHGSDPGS
# methodDescription: Inhibition of hERG expressed in CHO cells assessed as inhibition of channel current at holding potential of -80 mV by automated patch clamp method

{"columns": ["chemicalString", "IC50 / µM"],
 "data": [
  ["COc1ccc2c(c1)[C@]13CCCC[C@@H]1[C@H](C2)N(C)CC3", 13],
  ["CN1CC[C@@]23CCCC[C@@H]2[C@@H]1Cc1ccc(N)cc13", 22.1]
]}

====

# methodDescription: MRT (0 to infinity) in ICR mouse at 10 mg/kg, ip measured upto 24 hrs by LC-MS/MS analysis
# Type: ADME, organism-based
# conditionDescription: in vivo
readout: MRT inf

{"columns": ["chemicalString", "result"],
 "data": [
  ["COc1ccc2c(c1)[C@]13CCCC[C@@H]1[C@H](C2)N(C)CC3", "1.33 h"],
  ["CN1CC[C@@]23CCCC[C@@H]2[C@@H]1Cc1ccc(N)cc13", "2.64 h"],
  ["CC(=O)Nc1ccc2c(c1)[C@]13CCCC[C@@H]1[C@H](C2)N(C)CC3", "0.68 h"]
]}
